SUBJECT OF TEST: BACE1 in primary mouse cortical neurons (mouse, UniProt P56818 46-501)
Sequence (P56818 46-501): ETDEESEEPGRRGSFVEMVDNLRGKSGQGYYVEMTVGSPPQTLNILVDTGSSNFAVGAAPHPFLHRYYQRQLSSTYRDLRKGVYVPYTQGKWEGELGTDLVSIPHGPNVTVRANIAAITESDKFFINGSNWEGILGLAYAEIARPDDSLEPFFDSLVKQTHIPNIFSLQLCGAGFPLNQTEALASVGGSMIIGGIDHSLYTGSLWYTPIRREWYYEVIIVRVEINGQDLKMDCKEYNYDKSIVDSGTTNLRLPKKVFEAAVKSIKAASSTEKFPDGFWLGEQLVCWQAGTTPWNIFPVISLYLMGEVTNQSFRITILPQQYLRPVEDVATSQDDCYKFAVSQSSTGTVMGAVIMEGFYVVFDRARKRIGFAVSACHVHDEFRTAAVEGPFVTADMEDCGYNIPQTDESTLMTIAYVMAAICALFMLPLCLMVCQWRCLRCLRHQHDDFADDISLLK
ASSAY METHOD TEXT: cell-based or functional assay
METRIC NAME: IC50, Abeta x-40 in mouse cortical neurons (nM)
Just the number in nM, nothing appended.

# BINDER, UOM, READING
data = [
    ("5572 (antibody, V domains shown, anti-BACE1 IgG) VH: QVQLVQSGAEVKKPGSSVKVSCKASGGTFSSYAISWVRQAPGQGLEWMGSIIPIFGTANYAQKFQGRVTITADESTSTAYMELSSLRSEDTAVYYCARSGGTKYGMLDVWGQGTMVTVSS VL: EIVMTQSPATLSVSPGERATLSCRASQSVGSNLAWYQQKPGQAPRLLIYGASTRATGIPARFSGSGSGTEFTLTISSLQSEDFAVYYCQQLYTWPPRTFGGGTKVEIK", "nM", 27.1),
]

Now consider a different binder.
[ask] Give me measured IC50, Abeta x-40 in mouse cortical neurons, please, for this binder: 5884 (antibody, V domains shown, anti-BACE1 IgG) VH: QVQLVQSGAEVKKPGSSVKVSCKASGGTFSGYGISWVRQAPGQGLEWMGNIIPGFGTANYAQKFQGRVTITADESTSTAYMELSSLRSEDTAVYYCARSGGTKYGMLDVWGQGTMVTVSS VL: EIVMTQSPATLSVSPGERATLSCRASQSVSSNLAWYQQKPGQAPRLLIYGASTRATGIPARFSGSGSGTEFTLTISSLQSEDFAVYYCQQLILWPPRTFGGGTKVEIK
[reply] 4.56

Origin of the recorded values: patent US20180057604A1
